- measured_target: Dipeptidyl amino peptidase type IV (DPP IV)
- experimental_protocol: cell-based or functional assay
Where no end group is shown, it is not given here. [ ]: non-standard residue; d: D form. The star is where a group is joined. NMeF = CN[C@@H](Cc1ccccc1)C(=O)O; boroPro = OB(O)[C@@H]1CCCN1*
Provide the recorded IC50 at ten minutes, pH 8 for the entries that follow.
# answer = value followed by unit

Name the recorded IC50 at ten minutes, pH 8 for GPP[boroPro] [GlyProProboroPro] . 20 µM

For the binder shown here, [NMeF]PA[boroPro] [N-Me-Phe-PRO-ALA-PRO boronic acid] , give the reported IC50 at ten minutes, pH 8. 2.7 µM

Sample AAV[boroPro] [AlaAlaValboroPro] — what was its IC50 at ten minutes, pH 8? 25 µM
